B1: Osa-1-4 twister ribozyme (parent)
chain: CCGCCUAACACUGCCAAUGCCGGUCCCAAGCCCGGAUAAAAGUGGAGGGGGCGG

- Variants of: B1
- test.protocol: self-cleavage, relative activity (ratio to wild type); higher = more cleavage; co-transcriptional
Assignment: determine reported self-cleavage for the given variants.
Numbers only.

Completed entries (count: 10):
Query: self-cleavage; subject: A41G C52U
0.88

Check A8G G47A too.
0.11

Check A38C A39C too.
0.86

Check C15U G51U too.
0.07

Check C11U C52G too.
0.81

Check C14G G54A too.
0.1

Check A39C C25G too.
0.06

Check U24C U37G too.
0.55

Check A36C G34U too.
0.75

Check G19U G45A too.
0.03

// batch mode: one self-cleavage value per listed entry
1. G19A U24G
2. G19C U18C
3. G30C G51A
4. A7C C25U
5. A17G U12A
6. G48C U24G

1. 0.09
2. 0.39
3. 0.05
4. 0.04
5. 0.86
6. 0.01
